The following compounds are listed with their measured IC50 values.
- System: NCI-H358 (K-Ras G12C)
- experiment notes: CellTiter-Glo cell viability assay, NCI-H358
- Assay type: cell-based, human
- test conditions: Homo sapiens, NCI-H358, 120 h, read-out: H358 Cell Viability assay data (K-Ras G12C, IC50, uM), 5-day treatment

Would you please look over these solved cases?
{"compound": "CCn1c(-c2cccnc2[C@H](C)OC)c2c3cc(ccc31)-c1csc(n1)[C@@H](OC)[C@H](NC(=O)[C@H](C(C)C)N(C)C(=O)N(C)C)C(=O)N1CCC[C@H](N1)C(=O)OCC(C)(C)C2 [Compound A598]", "IC50": "0.01 to 0.1 µM"}
{"compound": "CCn1c(-c2cccnc2[C@H](C)OC)c2c3cc(ccc31)-c1cc(O)cc(c1)C[C@H](NC(=O)[C@H](C(C)C)N(C)C(=O)C1(N)CC1)C(=O)N1CCC[C@H](N1)C(=O)OCC(C)(C)C2 [Compound A168]", "IC50": "0.01 to 0.1 µM"}

The record that follows has no IC50 shown yet.
Data request: Return the recorded IC50 value; entry: CC#CC(=O)N1CC[C@H](C(=O)N(C)[C@H](C(=O)N[C@H]2Cc3cc(O)cc(c3)-c3ccc4c(c3)c(c(-c3cccnc3[C@H](C)OC)n4CC)CC(C)(C)COC(=O)[C@@H]3CCCN(N3)C2=O)C(C)C)C1 [Compound A145]
Data returned: < 0.01 µM

* * *

- target system: KRAS G13D (Homo sapiens (Human), UniProt P01116+P62937, G13D)
- Sequence (P01116 other isoform, or with tags, fused parts or gaps G13D): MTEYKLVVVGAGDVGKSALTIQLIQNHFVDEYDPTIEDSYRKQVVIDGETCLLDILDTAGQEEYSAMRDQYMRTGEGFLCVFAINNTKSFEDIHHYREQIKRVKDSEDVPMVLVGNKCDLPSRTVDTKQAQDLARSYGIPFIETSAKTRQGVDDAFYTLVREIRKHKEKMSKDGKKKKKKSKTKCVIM
- Sequence (P62937 whole entry): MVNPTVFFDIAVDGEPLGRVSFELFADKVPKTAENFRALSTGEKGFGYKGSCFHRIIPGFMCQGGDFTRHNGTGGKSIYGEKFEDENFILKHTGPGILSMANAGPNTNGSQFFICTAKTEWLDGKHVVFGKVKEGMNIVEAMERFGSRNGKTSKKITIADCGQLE
- experiment notes: Ras-Raf disruption/FRET/MOA assay (BRAF RBD, Cyclophilin A)
- Type: biochemical
- test conditions: read-out: KRAS G13D FRET data IC50
pIC50: −log10 of the molar value.
readout: pIC50

# count of solved cases: 5
{"compound": "CCn1c(-c2cccnc2[C@H](C)OC)c2c3cc(ccc31)-c1csc(n1)C[C@H](NC(=O)[C@H](C(C)C)N(C)C(=O)N1CCN3C(=O)CN(C)C[C@@H]3C1)C(=O)N1CCC[C@H](N1)C(=O)OCC(C)(C)C2", "measured result": "6.00 to 7.00"}
{"compound": "CCn1c(-c2cccnc2[C@H](C)OC)c2c3cc(ccc31)-c1csc(n1)C[C@H](NC(=O)[C@H](C(C)C)N(C)C(=O)N1C[C@@H]3OCCN(C)[C@@H]3C1)C(=O)N1CCC[C@H](N1)C(=O)OCC(C)(C)C2", "measured result": "6.00 to 7.00"}
{"compound": "CCn1c(-c2cccnc2[C@H](C)OC)c2c3cc(ccc31)-c1csc(n1)C[C@H](NC(=O)[C@H](C(C)C)N(C)C(=O)N1CC(OC(F)(F)F)C1)C(=O)N1CCC[C@H](N1)C(=O)OCC(C)(C)C2", "measured result": "6.00 to 7.00"}
{"compound": "CCn1c(-c2cccnc2[C@H](C)OC)c2c3cc(ccc31)-c1cc(O)cc(c1)C[C@H](NC(=O)[C@H](C(C)C)N(C)C(=O)C1CC3(CCOCC3)CO1)C(=O)N1CCC[C@H](N1)C(=O)OCC(C)(C)C2 (stereo partly drawn)", "measured result": "6.00 to 7.00"}
{"compound": "CCn1c(-c2cccnc2[C@H](C)OC)c2c3cc(ccc31)-c1csc(n1)C[C@H](NC(=O)N1CC[C@@H]1COC)C(=O)N1CCC[C@H](N1)C(=O)OCC(C)(C)C2", "measured result": "6.00 to 7.00"}

Data request: Note down pIC50 recorded for "CCn1c(-c2cccnc2[C@H](C)OC)c2c3cc(ccc31)-c1csc(n1)C[C@H](NC(=O)[C@H](C(C)C)N(C)C(=O)N1CCN3C(=O)CN(C)C[C@H]3C1)C(=O)N1CCC[C@H](N1)C(=O)OCC(C)(C)C2"
Data returned: 6.00 to 7.00

Data request: Look up and state reported pIC50 for "CCn1c(-c2cccnc2[C@H](C)OC)c2c3cc(ccc31)-c1cccc(c1)C[C@H](NC(=O)[C@H](C(C)C)N(C)C(C)=O)C(=O)N1CCC[C@H](N1)C(=O)OCC(C)(C)C2"
Data returned: 5.00 to 6.00

Data request: Please indicate pIC50 recorded for CCn1c(-c2cccnc2[C@H](C)OC)c2c3cc(ccc31)-c1cc(O)cc(c1)C[C@H](NC(=O)[C@H](C(C)C)N(C)C(=O)C1(C(F)F)CCCO1)C(=O)N1CCC[C@H](N1)C(=O)OCC(C)(C)C2 (stereo partly drawn)
Data returned: 6.00 to 7.00

Data request: Look up and state reported pIC50 for "CCn1c(-c2ccccc2CCOC)c2c3cc(ccc31)-c1cc(O)cc(c1)C[C@H](NC(=O)[C@H](C(C)C)N(C)C(=O)CNC(=N)N)C(=O)N1CCC[C@H](N1)C(=O)OCC(C)(C)C2"
Data returned: 5.00 to 6.00
